B1: 6NMW (parent)
chain: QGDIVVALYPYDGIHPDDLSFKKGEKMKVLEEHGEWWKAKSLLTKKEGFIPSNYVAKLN

variants of: B1; assay: folding stability dG (cDNA display proteolysis); higher = more stable; conditions: PBS, room temperature
Returns Y if the recorded folding stability dG is greater than or equal to 3 kcal/mol, and N otherwise.

[[record]]
variant_description = "W36E"
group = "N"

[[record]]
variant_description = "V5F"
group = "Y"

[[record]]
variant_description = "K45D"
group = "Y"

[[record]]
variant_description = "V5C"
group = "Y"

[[record]]
variant_description = "K46S"
group = "N"

[[record]]
variant_description = "E32F"
group = "Y"

[[record]]
variant_description = "V6A"
group = "N"

[[record]]
variant_description = "D12S"
group = "Y"

[[record]]
variant_description = "F49T"
group = "N"


Data credit: the MegaScale stability set (Tsuboyama et al. 2023)
